Tested on: human plasma
Settings: human, plasma
// values below are reported PPB_Stab_Fail
readout.label: PPB_Stab_Fail

1. C=CC(=O)OCCC(F)(F)C(F)(F)C(F)(F)C(F)(F)C(F)(F)C(F)(F)C(F)(F)C(F)(F)F [8:2 Fluorotelomer acrylate] : 1
2. C=C(C)C(=O)OCC(F)(F)C(F)(F)C(F)(F)F [1H,1H-Perfluorobutyl methacrylate] : 1
3. C=C(C)C(=O)OCC(F)(F)C(F)(F)C(F)(F)C(F)(F)C(F)(F)C(F)(F)C(F)(F)F [1H,1H-Perfluorooctyl methacrylate] : 0
4. C=C(C)C(=O)OCCC(F)(F)C(F)(F)C(F)(F)C(F)(F)C(F)(F)C(F)(F)C(F)(F)C(F)(F)F [8:2 Fluorotelomer methacrylate] : 0

* * *

Consider the following compounds and their measured Fstable.Med readings.
Tested on: human plasma
Conditions: both, human, 5 h, 10 μM
readout.label: Fstable.Med

1) OCC(F)(F)OC(F)(F)C(F)(F)OC(F)(F)C(F)(F)OC(F)(F)CO : 0.989
2) OCC(F)(F)OC(F)(F)C(F)(F)OC(F)(F)CO : 0.999
3) C=CC(=O)OCC(F)(F)C(F)F [2,2,3,3-Tetrafluoropropyl acrylate] : 0.000712
4) COC(=O)C(F)(F)C(F)(F)OC(F)(C(F)(F)F)C(F)(F)OC(F)=C(F)F (centres unmarked) : 0.224
5) NC(=O)C(F)(F)C(F)(F)F [Pentafluoropropionamide] : 0.19

* * *

Experiment: Abiotic loss in negative controls of the hepatocyte clearance assay (cell-free media, metabolically inactivated hepatocytes)
Format: in vitro ADME
Conditions: flag for stability failure in hepatocyte clearance assay controls (1 or Fst = fail, 0 = pass)
Catalogue of Hep_Stab_Fail values
readout.label: Hep_Stab_Fail

1) C=CC(=O)OCC(F)(F)C(F)(F)C(F)(F)C(F)(F)C(F)(F)C(F)(F)C(F)(F)F [1H,1H-Perfluorooctyl acrylate] : 1
2) OCC(F)(F)C(F)(F)C(F)(F)C(F)(F)C(F)(F)C(F)(F)CO [1H,1H,8H,8H-Perfluorooctane-1,8-diol] : 0
3) C=CC(=O)OCC(F)(F)C(F)(F)C(F)(F)C(F)(F)C(F)(F)C(F)(F)C(F)(F)C(F)F [1H,1H,9H-Perfluorononyl acrylate] : 1
4) OCCC(F)(F)C(F)(F)C(F)(F)C(F)(F)F [4:2 Fluorotelomer alcohol] : 0
5) NC(=O)C(F)(F)C(F)(F)C(F)(F)C(F)(F)C(N)=O [Octafluoroadipamide] : 0
6) C=C(C)C(=O)OCCC(F)(F)C(F)(F)C(F)(F)C(F)(F)C(F)(F)C(F)(F)C(F)(F)C(F)(F)F [8:2 Fluorotelomer methacrylate] : 1
7) OCC(F)(F)C(F)(F)C(F)(F)C(F)(F)C(F)(F)C(F)(F)C(F)(F)C(F)(F)C(F)(F)C(F)(F)C(F)(F)F [11:1 Fluorotelomer alcohol] : 1

* * *

Assay: in vitro
Conditions: both, human, plasma, Mean Fu
// fraction unbound at 5 h, 10 μM lookup, one value per entry
readout.label: fraction unbound at 5 h, 10 μM

1) NC(=O)C(F)(F)C(F)(F)F [Pentafluoropropionamide] : 0.809
2) OCC(F)(F)OC(F)(F)C(F)(F)OC(F)(F)C(F)(F)OC(F)(F)CO : 0.013
3) OCC(F)(F)OC(F)(F)C(F)(F)OC(F)(F)CO : 0.207
4) COC(=O)C(F)(F)C(F)(F)OC(F)(C(F)(F)F)C(F)(F)OC(F)=C(F)F (stereo not shown) : 0.023

* * *

Experiment: Ultracentrifugation (UC) plasma protein binding assay, fraction unbound in plasma (fup)
Details: both, human, plasma, Mean fu, fraction unbound in human plasma, ultracentrifugation; some values based on eLOQ
readout.label: fraction unbound at 5 h, 10 μM

1) FC(F)C(F)(F)COCC1CO1 (stereo not shown) : 0.841

* * *

Experiment: in vitro
Conditions: both, human, plasma, Fraction Unbound (fu)
readout.label: fraction unbound at 5 h, 10 μM

1) OCC(F)(F)OC(F)(F)C(F)(F)OC(F)(F)CO : 0.188

* * *

Experiment: in vitro
Details: both, human, plasma
readout.label: remaining at 5 h, 10 μM (%)

1) FC(F)(F)C(F)(C(F)(F)F)C(F)(F)C(F)(F)CC1CO1 (centres unmarked) : 0
2) C=CC(=O)OCC(F)(F)C(F)F [2,2,3,3-Tetrafluoropropyl acrylate] : 0

* * *

Test system: human plasma
Test: Chemical stability in plasma over the UC assay time course (T5hr/T1hr)
Settings: median fraction stable in plasma, UC assay Level4
Attribute: Fstable.Med
readout.label: Fstable.Med

1) FC(F)(F)C(F)(F)C(F)(F)C(F)(F)C(F)(F)C(F)(F)C(F)(F)I [1-Iodopentadecafluoroheptane] : 0.202
2) FC(F)(F)COC(OCC(F)(F)F)OCC(F)(F)F [tris(Trifluoroethoxy)methane] : 0.362
3) FC(F)(I)C(F)(F)C(F)(F)C(F)(F)C(F)(F)C(F)(F)I [1,6-Diiodoperfluorohexane] : 0.577
4) NCC(F)(F)C(F)(F)C(F)(F)C(F)(F)C(F)(F)C(F)(F)C(F)(F)F [1H,1H-Perfluorooctylamine] : 0.0977
5) NC(=O)C(F)(F)C(F)(F)C(F)(F)C(F)(F)F [Nonafluoropentanamide] : 0.999
6) FC(F)(Br)C(F)(F)C(F)(F)C(F)(F)C(F)(F)C(F)(F)Br [1,6-Dibromododecafluorohexane] : 0.312
7) FC(F)C(F)(F)COCC1CO1 (centres unmarked) : 0.531
8) N=C(N)C(F)(F)C(F)(F)C(F)(F)C(F)(F)C(F)(F)C(F)(F)C(F)(F)F [Perfluorooctanamidine] : 0.0291

* * *

Overview of reported Fub across a group of compounds:
Assay: In vitro-in vivo extrapolation (IVIVE) to Css and administered equivalent dose (AED)
Design: species or system human
Conditions: fub=fup/(B:P); Fub set to 1 if needed
readout.label: Fub

1. OCC(F)(F)OC(F)(F)C(F)(F)OC(F)(F)CO : 0.3762
2. OCCC(F)(F)C(F)(F)C(F)(F)C(F)(F)F : 0.3055
3. NC(=O)C(F)(F)C(F)(F)F [Pentafluoropropionamide] : 1
4. OCC(F)(F)OC(F)(F)C(F)(F)OC(F)(F)C(F)(F)OC(F)(F)CO : 0.02327
5. OCC(F)(F)C(F)(F)C(F)(F)C(F)(F)C(F)(F)C(F)(F)C(F)(F)C(F)(F)CO [1H,1H,10H,10H-Perfluorodecane-1,10-diol] : 0.008545
6. OCC(F)(F)C(F)(F)C(F)(F)C(F)(F)C(F)(F)C(F)(F)CO : 0.1018
7. OCC(F)(F)C(F)(F)C(F)(F)CO : 1
8. NC(=O)C(F)(F)C(F)(F)C(F)(F)F [Heptafluorobutyramide] : 1
9. NC(=O)C(F)(F)C(F)(F)C(F)(F)C(F)(F)F [Nonafluoropentanamide] : 0.3609

* * *

Test: in vitro
Conditions: both, human, plasma, Mean fu, fraction unbound in human plasma, ultracentrifugation; some values based on eLOQ
Lab note: compare fraction unbound with 0.04, writing T if less and F if equal or more.

1) NC(=O)C(F)(F)C(F)(F)C(F)(F)F [Heptafluorobutyramide] : F
2) OCCCC(F)(F)C(F)(F)C(F)(F)C(F)(F)C(F)(F)C(F)(F)C(F)(F)C(F)(F)F [3-(Perfluorooctyl)propanol] : T
3) OCC(F)(F)C(F)(F)C(F)(F)C(F)(F)C(F)(F)C(F)(F)C(F)(F)C(F)(F)CO [1H,1H,10H,10H-Perfluorodecane-1,10-diol] : T
4) C=C(C)C(=O)OCCC(F)(F)C(F)(F)C(F)(F)C(F)(F)C(F)(C(F)(F)F)C(F)(F)F : F
5) FC(F)(Br)C(F)(F)C(F)(F)C(F)(F)C(F)(F)C(F)(F)Br [1,6-Dibromododecafluorohexane] : T
6) OCC(F)(F)C(F)(F)C(F)(F)C(F)(F)C(F)(F)C(F)(F)CO [1H,1H,8H,8H-Perfluorooctane-1,8-diol] : F
7) OCCC(F)(F)C(F)(F)C(F)(F)C(F)(F)F [4:2 Fluorotelomer alcohol] : F

* * *

Tested on: human plasma
Experiment: Ultracentrifugation (UC) plasma protein binding assay, fraction unbound in plasma (fup)
Conditions: amount measured in aqueous fraction after ultracentrifugation, run average, unit not given
readout.label: Aqueous Fraction, Run-specific Avg

1. OCC(F)(F)C(F)(F)C(F)(F)C(F)(F)C(F)(F)C(F)(F)C(F)(F)C(F)(F)C(F)(F)C(F)(F)C(F)(F)F : 847.84
2. OCC(F)(F)C(F)(F)C(F)(F)C(F)(F)C(F)(F)C(F)(F)F : 190.55
3. FC(F)(Br)C(F)(F)C(F)(F)C(F)(F)C(F)(F)C(F)(F)Br : 16.97
4. OCCC(F)(F)C(F)(F)C(F)(F)C(F)(F)C(F)(F)C(F)(F)C(F)(F)C(F)(F)F : 137.73
